pIC50 values for the molecules below.
assaySystem: human 11β-HSD2 (Homo sapiens)
Construct: CHO cells stably transfected with the full-length gene coding for human 11β-HSD2 were used
Sequence (P80365 whole entry): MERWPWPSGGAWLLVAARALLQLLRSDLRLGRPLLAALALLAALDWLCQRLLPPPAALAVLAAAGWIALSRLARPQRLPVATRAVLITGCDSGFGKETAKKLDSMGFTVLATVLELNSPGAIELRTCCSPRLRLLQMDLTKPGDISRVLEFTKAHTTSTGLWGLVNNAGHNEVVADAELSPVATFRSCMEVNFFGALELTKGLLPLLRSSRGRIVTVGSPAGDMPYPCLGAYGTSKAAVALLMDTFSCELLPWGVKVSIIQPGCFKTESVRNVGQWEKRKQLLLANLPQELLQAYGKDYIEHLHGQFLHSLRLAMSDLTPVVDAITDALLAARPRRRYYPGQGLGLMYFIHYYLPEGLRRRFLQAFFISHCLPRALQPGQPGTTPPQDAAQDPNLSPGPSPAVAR
methodDescription: Cellular in vitro 11β-HSD2 enzyme inhibition assay (CHO cells)
experimentalParameters: CHO cells transfected with human 11β-HSD2
pIC50: −log10 of the molar value.
readoutKind: pIC50

• O=C(c1csc(-c2cn[nH]c2)c1)N1C2CCC1CC(O)(c1ccccn1)C2 (stereo not drawn) [XX-01] = < 5.00
• O=C(c1csc(-c2cn[nH]c2)c1)N1CCC(O)(c2ncccc2Cl)CC1 [YY-02] = < 5.00
• O=C(c1csc(-c2cn[nH]c2)c1)N1C2CCC1CC(F)(c1ncccc1Cl)C2 (stereo not drawn) [XX-13] = < 5.00
• O=C(c1csc(-c2cn[nH]c2)c1)N1C2CCC1CC(O)(c1cnccn1)C2 (stereo not drawn) [XX-24] = < 5.00
• Cc1cccnc1C1(F)CC2CCC(C1)N2C(=O)c1csc(-c2cn[nH]c2)c1 (single isomer, unassigned) [XX-16] = < 5.00
• Cc1cccnc1C1(O)CC2CCC(C1)N2C(=O)c1csc(-c2cn[nH]c2)c1 (stereo not drawn) [XX-07] = < 5.00
• N#CC1(c2ccccn2)CC2CCC(C1)N2C(=O)c1csc(-c2cn[nH]c2)c1 (stereo not drawn) [XX-18] = < 5.00
• O=C(c1csc(-c2cn[nH]c2)c1)N1CCC(O)(c2ccncc2Cl)CC1 [YY-06] = < 5.00
• O=C(c1csc(-c2cn[nH]c2)c1)N1C2CCC1CC(O)(c1ncccn1)C2 (stereo not drawn) [XX-20] = < 5.00
• O=C(c1csc(-c2cn[nH]c2)c1)N1C2CCC1CC(O)(c1nccs1)C2 (stereo not drawn) [XX-29] = < 5.00
• O=C(c1csc(-c2cn[nH]c2)c1)N1C2CCC1CC(O)(c1ncccc1Cl)C2 (stereo not drawn) [XX-03] = < 5.00
• O=C(c1csc(-c2cn[nH]c2)c1)N1C2CCC1CC(F)(c1cccnn1)C2 (stereo not drawn) [XX-43] = < 5.00
